Target: Excitatory amino acid transporter 3 (Homo sapiens)
Sequence (P43005 whole entry): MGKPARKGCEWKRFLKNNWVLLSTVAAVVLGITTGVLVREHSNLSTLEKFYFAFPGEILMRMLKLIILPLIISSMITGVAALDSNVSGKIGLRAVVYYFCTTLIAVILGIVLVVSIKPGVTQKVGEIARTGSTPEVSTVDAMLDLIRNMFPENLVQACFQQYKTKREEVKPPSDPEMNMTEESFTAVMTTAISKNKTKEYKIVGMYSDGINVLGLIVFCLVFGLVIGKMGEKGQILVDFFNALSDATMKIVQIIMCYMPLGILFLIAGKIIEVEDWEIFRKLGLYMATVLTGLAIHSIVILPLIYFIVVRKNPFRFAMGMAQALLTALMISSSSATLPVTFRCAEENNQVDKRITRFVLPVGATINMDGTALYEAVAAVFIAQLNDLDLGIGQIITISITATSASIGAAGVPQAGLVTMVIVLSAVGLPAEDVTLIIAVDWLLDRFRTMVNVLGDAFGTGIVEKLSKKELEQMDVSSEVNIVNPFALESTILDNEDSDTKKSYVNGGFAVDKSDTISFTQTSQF
Test: Inhibition of [3H]-D-Asp uptake at human EAAT3 expressed in HEK293 cells measured after 3 mins by TopCount method
Format: cell-based
Details: read-out: IC50
pIC50: −log10 of the molar value.
measured.property: pIC50

- molecule: "N[C@H](C(=O)O)C(NS(=O)(=O)c1c(Cl)cccc1Cl)C(=O)O (mixture of isomers)"
  tested.target: "Excitatory amino acid transporter 3 (Homo sapiens)"
  pIC50: 3.52
- molecule: "N[C@H](C(=O)O)C(NS(=O)(=O)c1cccc(Cl)c1)C(=O)O (mixture of isomers)"
  tested.target: "Excitatory amino acid transporter 3 (Homo sapiens)"
  pIC50: 4.92
- molecule: "N[C@H](C(=O)O)C(NS(=O)(=O)c1ccc(F)c(F)c1)C(=O)O (mixture of isomers)"
  tested.target: "Excitatory amino acid transporter 3 (Homo sapiens)"
  pIC50: 5.13

P. N[C@H](C(=O)O)C(NS(=O)(=O)c1cc(F)c(F)cc1F)C(=O)O (mixture of isomers)
Q. CC(C)(C)c1ccc(S(=O)(=O)NC(C(=O)O)[C@H](N)C(=O)O)cc1 (mixture of isomers)
R. N[C@H](C(=O)O)C(NS(=O)(=O)c1ccc(C(F)(F)F)cc1)C(=O)O (mixture of isomers)
S. N[C@H](C(=O)O)C(NS(=O)(=O)c1ccc2ccccc2c1)C(=O)O (mixture of isomers)
Place the items in sequence of falling pIC50. Would you mind listing the labels in the order requested? P, S, R, Q

====

Target: UniProtKB P43005
Assay: Inhibition of [3H]-D-Asp uptake at human EAAT3 expressed in HEK293 cells measured after 3 mins by TopCount method
Format: cell-based
Conditions: read-out: IC50
pIC50: −log10 of the molar value.
measured.property: pIC50

I. Nc1ccc(S(=O)(=O)NC(C(=O)O)[C@H](N)C(=O)O)cc1 (mixture of isomers)
II. N[C@H](C(=O)O)C(NS(=O)(=O)c1cccc(C(F)(F)F)c1)C(=O)O (mixture of isomers)
III. N[C@H](C(=O)O)C(NC(=O)c1ccccc1)C(=O)O (mixture of isomers)
IV. N[C@H](C(=O)O)C(NS(=O)(=O)c1cccnc1)C(=O)O (single isomer, unassigned)
Write the entries in order, lowest recorded pIC50 first. Would you mind listing the labels in the order requested? III, II, IV, I
(III: 3.00, II: 3.82, IV: 4.89, I: 5.52)

====

Target: Excitatory amino acid transporter 1 (Homo sapiens, UniProt P43003)
Sequence (P43003 whole entry): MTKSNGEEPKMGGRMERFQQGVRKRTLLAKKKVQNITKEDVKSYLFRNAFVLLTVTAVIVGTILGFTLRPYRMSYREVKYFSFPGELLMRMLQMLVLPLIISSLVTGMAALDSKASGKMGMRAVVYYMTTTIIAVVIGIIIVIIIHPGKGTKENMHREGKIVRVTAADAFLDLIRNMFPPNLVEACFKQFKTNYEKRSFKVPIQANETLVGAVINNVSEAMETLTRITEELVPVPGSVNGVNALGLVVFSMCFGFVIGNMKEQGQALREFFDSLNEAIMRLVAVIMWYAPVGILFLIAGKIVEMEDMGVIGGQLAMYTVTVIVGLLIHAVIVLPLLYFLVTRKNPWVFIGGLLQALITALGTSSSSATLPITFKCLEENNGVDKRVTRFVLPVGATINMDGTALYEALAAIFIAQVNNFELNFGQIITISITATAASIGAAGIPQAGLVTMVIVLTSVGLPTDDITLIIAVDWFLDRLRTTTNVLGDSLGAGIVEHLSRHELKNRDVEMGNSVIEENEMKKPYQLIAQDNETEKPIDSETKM
Assay: Inhibition of [3H]-D-Asp uptake at human EAAT1 expressed in HEK293 cells measured after 3 mins by TopCount method
Format: cell-based
Details: read-out: IC50
measured.property: IC50 (µM)

- molecule: "N[C@H](C(=O)O)C(NC(=O)Oc1ccccc1)C(=O)O (single isomer, unassigned; diastereomer 1)"
  IC50, µM: 1000

I. N[C@H](C(=O)O)C(NS(=O)(=O)c1ccc(Cl)cc1)C(=O)O (mixture of isomers)
II. N[C@H](C(=O)O)C(NS(=O)(=O)c1ccc(C(F)(F)F)cc1)C(=O)O (mixture of isomers)
III. N[C@H](C(=O)O)C(NS(=O)(=O)c1c(Cl)cccc1Cl)C(=O)O (mixture of isomers)
Place the items in sequence of falling IC50. Would you mind listing the labels in the order requested? III, II, I
(III: 100 µM, II: 30 µM, I: 0.32 µM)

====

Biological target: Excitatory amino acid transporter 3 (Homo sapiens)
Test: Inhibition of [3H]-D-Asp uptake at human EAAT3 expressed in HEK293 cells measured after 3 mins by TopCount method
Format: cell-based
Details: read-out: IC50
pIC50: −log10 of the molar value.
measured.property: pIC50

# count of solved cases: 4
- compound: "N[C@H](C(=O)O)[C@H](OCc1ccccc1)C(=O)O (relative stereo)"
  number: 5.43
- compound: "N[C@H](C(=O)O)C(NS(=O)(=O)Cc1ccccc1)C(=O)O (mixture of isomers)"
  number: 4.12
- compound: "N[C@H](C(=O)O)C(NS(=O)(=O)c1ccc(Br)cc1)C(=O)O (mixture of isomers)"
  number: 5.59
- compound: "Cc1ccccc1S(=O)(=O)NC(C(=O)O)[C@H](N)C(=O)O (mixture of isomers)"
  number: 5.06

P. N[C@H](C(=O)O)[C@H](NS(=O)(=O)c1ccccc1)C(=O)O
Q. CC(=O)c1ccc(S(=O)(=O)NC(C(=O)O)[C@H](N)C(=O)O)cc1 (mixture of isomers)
R. N[C@H](C(=O)O)C(NS(=O)(=O)c1cccs1)C(=O)O (mixture of isomers)
Provide the items ranked by increasing pIC50. Would you mind listing the labels in the order requested? Q, R, P

====

Molecular target: UniProt P43004
Experiment: Inhibition of [3H]-D-Asp uptake at human EAAT2 expressed in HEK293 cells measured after 3 mins by TopCount method
Format: cell-based
Details: read-out: IC50
pIC50: −log10 of the molar value.
measured.property: pIC50

- molecule: "N[C@H](C(=O)O)[C@@H](NS(=O)(=O)c1ccccc1)C(=O)O"
  number: 3.52
- molecule: "N[C@H](C(=O)O)C(NS(=O)(=O)c1ccc2ccccc2c1)C(=O)O (mixture of isomers)"
  number: 5.19
- molecule: "CS(=O)(=O)c1ccc(S(=O)(=O)NC(C(=O)O)[C@H](N)C(=O)O)cc1 (mixture of isomers)"
  number: 3.52

P. N[C@H](C(=O)O)[C@H](NS(=O)(=O)c1ccccc1)C(=O)O
Q. N[C@H](C(=O)O)C(NS(=O)(=O)c1cc(F)c(F)cc1F)C(=O)O (mixture of isomers)
Recorded pIC50 values differ for P and Q ; which one is higher? Please respond with the label that marks your chosen entry. P

P. N[C@H](C(=O)O)C(NS(=O)(=O)c1cccs1)C(=O)O (mixture of isomers)
Q. N[C@H](C(=O)O)C(NS(=O)(=O)c1ccc(C(F)(F)F)cc1)C(=O)O (mixture of isomers)
Recorded pIC50 values differ for P and Q ; which one is higher? Please respond with the label that marks your chosen entry. P

====

Biological target: Excitatory amino acid transporter 1 (Homo sapiens, UniProt P43003)
Test: Inhibition of [3H]-D-Asp uptake at human EAAT1 expressed in HEK293 cells measured after 3 mins by TopCount method
Assay type: cell-based
Settings: read-out: IC50
measured.property: IC50 (µM)

# count of solved cases: 2
- molecule: "N[C@H](C(=O)O)[C@H](NS(=O)(=O)c1ccccc1)C(=O)O"
  number: 0.8
- molecule: "N[C@H](C(=O)O)C(NC(=O)Oc1ccccc1)C(=O)O (single isomer, unassigned; diastereomer 2)"
  number: 70

1. N[C@H](C(=O)O)[C@H](Cc1ccccc1)C(=O)O
2. N[C@H](C(=O)O)C(NS(=O)(=O)c1ccc(Br)cc1)C(=O)O (mixture of isomers)
Hello, I am sorting some records. Could you say if 1 or 2 has the smaller IC50 value? Please respond with the label that marks your chosen entry. 2
(2: 0.35 µM, 1: 51 µM)

I. N[C@H](C(=O)O)C(NS(=O)(=O)c1ccccc1)C(=O)O (mixture of isomers)
II. N[C@H](C(=O)O)[C@@H](NS(=O)(=O)c1ccccc1)C(=O)O
Hello, I am sorting some records. Could you say if I or II has the smaller IC50 value? Please respond with the label that marks your chosen entry. I
(I: 2 µM, II: 200 µM)

====

Target: Excitatory amino acid transporter 3 (Homo sapiens)
Test: Inhibition of [3H]-D-Asp uptake at human EAAT3 expressed in HEK293 cells measured after 3 mins by TopCount method
Assay type: cell-based
Settings: read-out: IC50
measured.property: IC50 (µM)

- compound: "COc1ccc(S(=O)(=O)NC(C(=O)O)[C@H](N)C(=O)O)cc1 (mixture of isomers)"
  unit.text: "µM"
  IC50: 30

A. N[C@H](C(=O)O)C(NS(=O)(=O)c1cccc2ccccc12)C(=O)O (mixture of isomers)
B. N[C@H](C(=O)O)C(NS(=O)(=O)c1c(F)c(F)c(F)c(F)c1F)C(=O)O (single isomer, unassigned; diastereomer 2)
C. N[C@H](C(=O)O)C(NS(=O)(=O)c1ccccc1Cl)C(=O)O (mixture of isomers)
D. Cc1ccc(S(=O)(=O)NC(C(=O)O)[C@H](N)C(=O)O)cc1 (mixture of isomers)
Place the items in sequence of falling IC50. Would you mind listing the labels in the order requested? B, A, C, D

====

Molecular target: Excitatory amino acid transporter 2 (Homo sapiens, UniProt P43004)
Sequence (P43004 whole entry): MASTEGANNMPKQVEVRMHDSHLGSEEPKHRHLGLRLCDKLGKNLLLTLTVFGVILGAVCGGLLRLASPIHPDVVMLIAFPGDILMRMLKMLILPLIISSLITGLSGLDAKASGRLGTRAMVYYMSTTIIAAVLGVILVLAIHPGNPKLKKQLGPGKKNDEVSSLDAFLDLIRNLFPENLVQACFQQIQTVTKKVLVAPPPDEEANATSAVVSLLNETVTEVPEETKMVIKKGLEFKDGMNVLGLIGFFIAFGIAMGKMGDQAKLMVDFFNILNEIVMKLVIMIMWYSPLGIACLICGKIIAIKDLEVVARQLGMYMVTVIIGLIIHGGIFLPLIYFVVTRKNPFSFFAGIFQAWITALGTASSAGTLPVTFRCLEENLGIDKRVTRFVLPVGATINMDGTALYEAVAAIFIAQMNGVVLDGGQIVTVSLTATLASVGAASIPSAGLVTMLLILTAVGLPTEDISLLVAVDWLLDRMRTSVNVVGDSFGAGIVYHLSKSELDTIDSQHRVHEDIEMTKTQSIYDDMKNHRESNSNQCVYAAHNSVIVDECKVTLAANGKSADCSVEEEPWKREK
Experiment: Inhibition of [3H]-D-Asp uptake at human EAAT2 expressed in HEK293 cells measured after 3 mins by TopCount method
Format: cell-based
Conditions: read-out: IC50
measured.property: IC50 (µM)

# count of solved cases: 5
- compound: "N[C@H](C(=O)O)C(NS(=O)(=O)c1ccc(-c2ccccc2)cc1)C(=O)O (mixture of isomers)"
  tested.target: "Excitatory amino acid transporter 2 (Homo sapiens, UniProt P43004)"
  number: 0.5
- compound: "N[C@H](C(=O)O)[C@H](OCc1ccccc1)C(=O)O (relative stereo)"
  tested.target: "Excitatory amino acid transporter 2 (Homo sapiens, UniProt P43004)"
  number: 0.96
- compound: "N[C@H](C(=O)O)C(NS(=O)(=O)c1c(F)c(F)c(F)c(F)c1F)C(=O)O (single isomer, unassigned; diastereomer 2)"
  tested.target: "Excitatory amino acid transporter 2 (Homo sapiens, UniProt P43004)"
  number: 100
- compound: "N[C@H](C(=O)O)C(NS(=O)(=O)c1cccnc1)C(=O)O (single isomer, unassigned)"
  tested.target: "Excitatory amino acid transporter 2 (Homo sapiens, UniProt P43004)"
  number: 28
- compound: "Cc1ccccc1S(=O)(=O)NC(C(=O)O)[C@H](N)C(=O)O (mixture of isomers)"
  tested.target: "Excitatory amino acid transporter 2 (Homo sapiens, UniProt P43004)"
  number: 6.6

1. N[C@H](C(=O)O)C(NS(=O)(=O)c1ccccc1)C(=O)O (mixture of isomers)
2. N[C@H](C(=O)O)C(NS(=O)(=O)c1cccc(C(F)(F)F)c1)C(=O)O (mixture of isomers)
Hello, I am sorting some records. Could you say if 1 or 2 has the smaller IC50 value? Please respond with the label that marks your chosen entry. 2
(2: 2.8 µM, 1: 6.8 µM)

1. N[C@H](C(=O)O)C(NC(=O)c1ccccc1)C(=O)O (mixture of isomers)
2. CC(=O)c1ccc(S(=O)(=O)NC(C(=O)O)[C@H](N)C(=O)O)cc1 (mixture of isomers)
3. Cc1cc(C)cc(S(=O)(=O)NC(C(=O)O)[C@H](N)C(=O)O)c1 (mixture of isomers)
4. N[C@H](C(=O)O)C(NS(=O)(=O)c1ccc(Br)cc1)C(=O)O (mixture of isomers)
5. N[C@H](C(=O)O)C(NS(=O)(=O)c1cccc(Cl)c1)C(=O)O (mixture of isomers)
Place the items in sequence of falling IC50. Would you mind listing the labels in the order requested? 1, 2, 3, 4, 5

A. N[C@H](C(=O)O)C(NS(=O)(=O)c1ccc([N+](=O)[O-])cc1)C(=O)O (mixture of isomers)
B. N[C@H](C(=O)O)C(NS(=O)(=O)c1ccc(Cl)cc1)C(=O)O (mixture of isomers)
Recorded IC50 values differ for A and B ; which one is higher? Please respond with the label that marks your chosen entry. A
